Attribution: paper PMC6503114

System: A. baumannii 7226/16
ASSAY_COMMENT: Checkerboard titration (FICI)
Type: cell-based, Acinetobacter baumannii
RECORDED_CONDITIONS: antibiotic in combination with ChBac3.4
Protocol: The combined antimicrobial action of AMPs and other antimicrobial compounds was assessed using checkerboard titration approach under the conditions similar to that of the microdilution assay. […] The results were recorded after the overnight incubation, visually indicating the presence or absence of the microbial growth in the corresponding wells. Based on the obtained data the isobolograms of combined action were plotted and/or Fractional Inhibitory Concentration Indices (FICI) were calculated. […]
Overview of reported Minimal FICI across a group of molecules:
Just the number, please, no unit attached.

Entry under test: CC[C@H]1OC(=O)[C@H](C)[C@@H](O[C@H]2C[C@@](C)(OC)[C@@H](O)[C@H](C)O2)[C@H](C)[C@@H](O[C@@H]2O[C@H](C)C[C@H](N(C)C)[C@H]2O)[C@](C)(O)C[C@@H](C)C(=O)[C@H](C)[C@@H](O)[C@]1(C)O [Erythromycin] . Its Minimal FICI was 0.75

Entry under test: Cc1onc(-c2ccccc2)c1C(=O)N[C@@H]1C(=O)N2[C@@H]1SC(C)(C)[C@@H]2C(=O)O [Oxacillin] . Its Minimal FICI was 1.12
